- assayed-target: T1, OX40 (antigen of the competitive ELISA of Example 5) (UniProt P43489 29-214)
- T1 sequence (looked up): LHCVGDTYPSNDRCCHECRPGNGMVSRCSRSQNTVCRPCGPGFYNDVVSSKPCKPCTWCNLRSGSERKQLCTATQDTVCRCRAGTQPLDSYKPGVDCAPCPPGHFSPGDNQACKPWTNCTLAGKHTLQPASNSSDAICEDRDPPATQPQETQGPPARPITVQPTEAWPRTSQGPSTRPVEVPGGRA
- experiment-notes: competitive ELISA; competitor MEDI0562
Provide the recorded percentage of competition for the entries that follow.
Field note: include the unit after the figure.

stdin: # input binder: MAb041 (antibody, IgG1, V domains shown) VH: EVQLVESGGGLVKPGGSLKLSCAVSGFTFSNSAMSWVRQTPEKRLEWVATITDGGDYTYYSDNVKGRFTISRDNAKNNLYLQMSHLKSEDTAMYYCVRGISYWGQGTLVTVS VL: DIVLTQSPASLAVSLGQRATISCRASKSVSTSSDSYMHWYQQKPGQPPKLLIKYASNLESGVPVRFSGSGSGTDFTLNIHPVEEEDAATYYCQHSREFPWTFGGGTKLEIK ; wanted: its percentage of competition
stdout: 2%

stdin: Quick one: MAb047 (antibody, IgG2c, V domains shown) VH: EVQLVESGGGLVKPGGSLKLSCAASGFTFSDYGMYWIRQAPEKGLEWVAYISNGGSSIYYADTVKGRFTVSRDNAKNTLFLQMTSLRSEDTAIYYCARGGELGFAYWGQGTLVTVSA VL: DIQMTQSPASLSVSVGETVTITCRASENIYSNLAWYQQKQGKSPQLLVYAAINLVEGVPSRFSGSGSGTQYSLKINSLQSEDFGSYFCQHFWGLPYTFGGGTKLE
stdout: 97%
